- MEASUREMENT_PROTOCOL: Solubility of KTZ, shake-flask method
- Format: physicochemical
- PARTICULARS: paraffin oil with 5% TTO; Paraffin oil + TTO 5%; 25 °C
MEASUREMENT_NAME: solubility at 24 h (µg/mL)
Quick reminder: number only, in µg/mL, skip the unit.

Entry CC(=O)N1CCN(c2ccc(OCC3COC(Cn4ccnc4)(c4ccc(Cl)cc4Cl)O3)cc2)CC1 (stereo not shown) [KTZ, Ketoconazole] — recorded solubility at 24 h = 80.1

----------
- MEASUREMENT_PROTOCOL: Solubility of KTZ, shake-flask method
- Assay type: physicochemical
- PARTICULARS: Paraffin oil; 25 °C
- Experimental: Mixtures were mechanically shaken for 24 h at 25 °C ± 0.5 °C and allowed to stand for 24 h to attain equilibrium. Then, the samples were centrifuged at 4000 rpm for 15 min, followed by filtration through a CA membrane filter (0.45 μm), diluted appropriately with methanol, and analyzed by the HPLC method at 231 nm against a standard.
MEASUREMENT_NAME: solubility at 24 h (µg/mL)
Numbers only; they are read as µg/mL.

The compound listed as CC(=O)N1CCN(c2ccc(OCC3COC(Cn4ccnc4)(c4ccc(Cl)cc4Cl)O3)cc2)CC1 (stereo not shown) shows solubility at 24 h equal to 17

----------
- MEASUREMENT_PROTOCOL: Solubility of KTZ, shake-flask method
- Format: physicochemical
- PARTICULARS: Water; 25 °C
MEASUREMENT_NAME: solubility at 24 h (µg/mL)
State just the number; it will be interpreted in µg/mL.

The compound identified as CC(=O)N1CCN(c2ccc(OCC3COC(Cn4ccnc4)(c4ccc(Cl)cc4Cl)O3)cc2)CC1 (stereo not shown) registered its solubility at 24 h at 9.56

----------
- MEASUREMENT_PROTOCOL: Solubility of KTZ, shake-flask method
- Format: physicochemical
- PARTICULARS: castor oil with 5% TTO, oil or lipid, thermodynamic from solid; Castor oil + TTO 5%; 25 °C
- Method: Mixtures were mechanically shaken for 24 h at 25 °C ± 0.5 °C and allowed to stand for 24 h to attain equilibrium. Then, the samples were centrifuged at 4000 rpm for 15 min, followed by filtration through a CA membrane filter (0.45 μm), diluted appropriately with methanol, and analyzed by the HPLC method at 231 nm against a standard.
MEASUREMENT_NAME: solubility at 24 h (µg/mL)
Reply numerically in µg/mL, unit not repeated.

Given item CC(=O)N1CCN(c2ccc(OCC3COC(Cn4ccnc4)(c4ccc(Cl)cc4Cl)O3)cc2)CC1 (stereo not shown) , the value recorded as its solubility at 24 h is 155

----------
- MEASUREMENT_PROTOCOL: Solubility of KTZ, shake-flask method
- Format: physicochemical
- PARTICULARS: isopropyl myristate with 5% TTO, oil or lipid, thermodynamic from solid; Isopropyl myristate + TTO 5%; 25 °C
MEASUREMENT_NAME: solubility at 24 h (µg/mL)
Kindly provide the numeric value in µg/mL only, without the unit symbol.

The recorded solubility at 24 h for entry CC(=O)N1CCN(c2ccc(OCC3COC(Cn4ccnc4)(c4ccc(Cl)cc4Cl)O3)cc2)CC1 (stereo not shown) equals 131

----------
- MEASUREMENT_PROTOCOL: Solubility of KTZ, shake-flask method
- Type: physicochemical
- PARTICULARS: water with 5% TTO, aqueous with cosolvent or surfactant or cyclodextrin, thermodynamic from solid; Water + TTO 5%; 25 °C
MEASUREMENT_NAME: solubility at 24 h

response.value for CC(=O)N1CCN(c2ccc(OCC3COC(Cn4ccnc4)(c4ccc(Cl)cc4Cl)O3)cc2)CC1 (stereo not shown) (field: solubility at 24 h) = 35.7 µg/mL
